Protocol Description: NCI Yeast Anticancer Drug Screen. Data for the sgs1 mgt1 strain (AID 161);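 note: 0% = growth of cultures given vehicle only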
Stated Conditions: S. cerevisiae sgs1 mgt1 strain, at 5.0 µM (retest, dose inferred, filed as 0.5), hits give high values
The panel holds about 79,000 compounds, 15% with a hit somewhere; the sample as a whole holds those more often.
Measured growth inhibition accompanies every entry in the list below.
Reported Metric: growth inhibition (%)

{"columns": ["Compound", "Reported Metric", "Measurement Unit", "Reported"],
 "data": [
  ["O=C(N/N=C/c1ccccc1O)c1ccccc1-n1cccc1", "growth inhibition", "%", 43],
  ["N=C(N)c1ccc(Nc2ccc(C(=N)N)cc2)cc1", "growth inhibition", "%", 19],
  ["Cc1ccc(NN(C)c2ccc(C)cc2)cc1", "growth inhibition", "%", -4],
  ["COc1ccc(C(c2c(O)c3ccccc3oc2=O)N2CCOCC2)cc1 (configuration not stated)", "growth inhibition", "%", -13],
  ["N#C/C(=C\\c1cc(Cl)cc(Cl)c1O)C(/C(C#N)=C/c1cc(Cl)cc(Cl)c1O)c1ccc2c(c1)OCO2 (configuration not stated)", "growth inhibition", "%", 75],
  ["O=C1C=C(Cl)C(=O)C(Cl)=C1Cl", "growth inhibition", "%", 12],
  ["Cn1cc(-c2c3c(cc4c2OCO4)OCO3)c2ccccc21", "growth inhibition", "%", 2],
  ["C/C(O)=c1\\cc(C#N)c(=C(C#N)C#N)nc1C", "growth inhibition", "%", 2],
  ["COC(=O)C1(C)CCCC2(C)C3CC(=O)C(C(C)C)=CC3(O)CCC12 (configuration not stated)", "growth inhibition", "%", 4],
  ["C/C(=N\\Nc1n[nH]c(=S)n1N)c1c(O)cc(C)oc1=O", "growth inhibition", "%", -1],
  ["BrC1CCCCCC1", "growth inhibition", "%", 1],
  ["O=C1OC(OC/C(Br)=C(/Br)COC2OC(=O)C(Cl)=C2Cl)C(Cl)=C1Cl (configuration not stated)", "growth inhibition", "%", 97]
]}

Origin of values: PubChem BioAssay (NCI)
